Provenance of the data: ChEMBL document CHEMBL1148884

Molecular target: Amyloid-beta precursor protein (Homo sapiens, UniProt P05067)
Sequence (P05067 whole entry): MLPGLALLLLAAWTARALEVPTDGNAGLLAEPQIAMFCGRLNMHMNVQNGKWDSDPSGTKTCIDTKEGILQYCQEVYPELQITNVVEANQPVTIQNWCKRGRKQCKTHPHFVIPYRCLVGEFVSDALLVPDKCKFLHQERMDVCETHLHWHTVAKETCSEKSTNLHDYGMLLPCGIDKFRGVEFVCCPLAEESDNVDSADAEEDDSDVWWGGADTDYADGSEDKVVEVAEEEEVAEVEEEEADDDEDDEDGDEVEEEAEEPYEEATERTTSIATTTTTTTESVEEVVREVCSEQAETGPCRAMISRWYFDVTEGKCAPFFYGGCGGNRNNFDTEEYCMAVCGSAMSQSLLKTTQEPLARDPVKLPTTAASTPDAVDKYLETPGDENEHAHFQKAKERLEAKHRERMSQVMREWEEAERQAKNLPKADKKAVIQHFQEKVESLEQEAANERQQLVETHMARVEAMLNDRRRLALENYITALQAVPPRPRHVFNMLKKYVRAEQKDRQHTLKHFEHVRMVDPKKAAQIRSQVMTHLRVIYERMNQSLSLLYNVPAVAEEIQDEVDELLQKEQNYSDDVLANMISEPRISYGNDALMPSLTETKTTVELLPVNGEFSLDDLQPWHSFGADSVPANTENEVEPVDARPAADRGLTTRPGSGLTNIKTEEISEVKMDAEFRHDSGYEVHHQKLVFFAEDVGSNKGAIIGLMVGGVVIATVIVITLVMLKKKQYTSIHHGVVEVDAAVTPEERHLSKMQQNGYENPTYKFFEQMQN
pKi: −log10 of the molar value.
assay_metric: pKi

# smiles_record, result_value
data = [
    ("CN(C)c1ccc(C#Cc2cnc(OCCOCCOCCF)c(I)c2)cc1", 7.77),
]

1. CN(C)c1ccc(C#Cc2cnc(OCCOCCOCCF)c(Br)c2)cc1
2. CN(C)c1ccc(C#Cc2cnc(OCCO)c(Br)c2)cc1
Incoming: Please compare: 1 and 2 . Report which one has the smaller pKi value. Returns: label corresponding to the selected item.
Outgoing: 1
(1: 7.95, 2: 8.17)
